The reported measurements were obtained from patent US20140350050A1.

methodNotes: PK (pharmacokinetic) study in rat, cassette dosing
Assay type: in vivo
conditionsUsed: male, Wistar, plasma, oral cassette 2 mg/kg
assayMetric: Tmax (h)
Record the value in h, omitting the unit from your answer.

Problem: Consider the compound shown here: CCN1CCC(n2cc(-c3cnc(N)c(O[C@H](C)c4c(Cl)ccc(F)c4Cl)c3)cn2)CC1 [Compound 21] What is its recorded Tmax?
Solution: 4

Problem: Consider the compound shown here: [2H]C([2H])([2H])C([2H])([2H])N1CCC(n2cc(-c3cnc(N)c(O[C@H](C)c4c(Cl)ccc(F)c4Cl)c3)cn2)CC1 [Compound 22] What is its recorded Tmax?
Solution: 4

---

testedSystem: ALK kinase (Homo sapiens, UniProt Q9UM73)
Sequence (Q9UM73 19-1620): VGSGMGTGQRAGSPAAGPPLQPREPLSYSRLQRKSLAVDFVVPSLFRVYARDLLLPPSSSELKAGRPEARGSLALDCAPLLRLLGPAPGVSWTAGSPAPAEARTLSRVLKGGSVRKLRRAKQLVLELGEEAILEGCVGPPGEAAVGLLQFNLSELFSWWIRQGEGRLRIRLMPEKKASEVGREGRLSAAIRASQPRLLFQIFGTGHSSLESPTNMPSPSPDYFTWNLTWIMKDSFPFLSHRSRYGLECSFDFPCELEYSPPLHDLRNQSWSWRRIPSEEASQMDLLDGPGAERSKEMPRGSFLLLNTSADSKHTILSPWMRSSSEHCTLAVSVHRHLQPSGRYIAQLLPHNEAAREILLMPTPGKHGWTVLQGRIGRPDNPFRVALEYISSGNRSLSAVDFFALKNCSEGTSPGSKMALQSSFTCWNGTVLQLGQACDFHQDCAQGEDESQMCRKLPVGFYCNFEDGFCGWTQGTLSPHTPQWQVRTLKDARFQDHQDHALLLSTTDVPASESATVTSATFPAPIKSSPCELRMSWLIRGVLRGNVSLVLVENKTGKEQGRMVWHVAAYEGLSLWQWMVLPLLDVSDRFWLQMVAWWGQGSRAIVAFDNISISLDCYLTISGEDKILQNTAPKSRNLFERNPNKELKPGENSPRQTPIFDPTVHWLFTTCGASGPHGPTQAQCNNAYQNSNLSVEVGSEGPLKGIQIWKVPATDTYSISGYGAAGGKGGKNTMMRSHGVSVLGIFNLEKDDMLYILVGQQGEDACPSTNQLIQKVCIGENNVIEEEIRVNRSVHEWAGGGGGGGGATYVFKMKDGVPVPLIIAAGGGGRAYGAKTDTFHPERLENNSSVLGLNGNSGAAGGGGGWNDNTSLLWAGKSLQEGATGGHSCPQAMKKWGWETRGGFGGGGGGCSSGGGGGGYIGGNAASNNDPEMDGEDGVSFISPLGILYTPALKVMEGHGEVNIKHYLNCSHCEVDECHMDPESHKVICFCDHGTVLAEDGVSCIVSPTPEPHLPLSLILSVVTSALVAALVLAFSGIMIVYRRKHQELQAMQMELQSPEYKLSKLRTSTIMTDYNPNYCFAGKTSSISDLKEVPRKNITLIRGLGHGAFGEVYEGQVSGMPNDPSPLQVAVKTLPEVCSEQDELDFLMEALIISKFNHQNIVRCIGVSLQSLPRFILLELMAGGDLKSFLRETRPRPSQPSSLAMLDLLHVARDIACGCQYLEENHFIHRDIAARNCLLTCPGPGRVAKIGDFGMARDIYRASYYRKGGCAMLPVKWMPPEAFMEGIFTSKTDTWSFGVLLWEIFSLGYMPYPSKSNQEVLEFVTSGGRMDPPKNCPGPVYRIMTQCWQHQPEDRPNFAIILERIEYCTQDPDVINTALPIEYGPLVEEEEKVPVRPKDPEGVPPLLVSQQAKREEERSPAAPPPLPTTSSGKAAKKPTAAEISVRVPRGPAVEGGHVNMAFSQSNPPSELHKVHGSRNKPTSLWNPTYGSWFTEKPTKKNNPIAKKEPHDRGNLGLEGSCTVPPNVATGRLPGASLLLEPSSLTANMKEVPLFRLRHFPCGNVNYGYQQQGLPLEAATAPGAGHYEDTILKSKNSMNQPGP
methodNotes: ALK kinase assay
Assay type: biochemical
conditionsUsed: ALK kinase assay; read-out: ALK (IC50 grading)
pIC50: −log10 of the molar value.
Please respond with reported pIC50 for every item in the list.

Problem: // map CCN1CCC(n2cc(-c3cnc(N)c(OC(C)c4c(Cl)ccc(F)c4Cl)c3)cn2)CC1 (stereo not shown) [Compound 7] to recorded pIC50 (system: ALK kinase (Homo sapiens, UniProt Q9UM73))
Solution: ≥ 7.00

Problem: // map CC(=O)Nc1ncc(-c2cnn(C3CCNCC3)c2)cc1O[C@@H](C)c1c(Cl)ccc(F)c1Cl [Compound 13] to recorded pIC50 (system: ALK kinase (Homo sapiens, UniProt Q9UM73))
Solution: 6.00 to 7.00

Problem: // map CC(=O)Nc1ncc(-c2cnn(C3CCNCC3)c2)cc1OC(C)c1c(Cl)ccc(F)c1Cl (stereo not shown) [Compound 9] to recorded pIC50 (system: ALK kinase (Homo sapiens, UniProt Q9UM73))
Solution: ≥ 7.00

Problem: // map [2H]C([2H])([2H])C([2H])([2H])N1CCC(n2cc(-c3cnc(N)c(O[C@H](C)c4c(Cl)ccc(F)c4Cl)c3)cn2)CC1 [Compound 22] to recorded pIC50 (system: ALK kinase (Homo sapiens, UniProt Q9UM73))
Solution: ≥ 7.00

---

Please respond with reported Cmax for every item in the list.
methodNotes: PK (pharmacokinetic) study in rat, cassette dosing
Assay type: in vivo
conditionsUsed: male, Wistar, plasma, oral cassette 2 mg/kg

Problem: Consider the compound shown here: [2H]C([2H])([2H])C([2H])([2H])N1CCC(n2cc(-c3cnc(N)c(O[C@H](C)c4c(Cl)ccc(F)c4Cl)c3)cn2)CC1 [Compound 22] What is its recorded Cmax?
Solution: 21 ng/mL

Problem: Consider the compound shown here: CCN1CCC(n2cc(-c3cnc(N)c(O[C@H](C)c4c(Cl)ccc(F)c4Cl)c3)cn2)CC1 [Compound 21] What is its recorded Cmax?
Solution: 22.9 ng/mL

---

methodNotes: PK (pharmacokinetic) study in rat, cassette dosing
Format: in vivo
conditionsUsed: male, Wistar, plasma, IV cassette 1 mg/kg
Please respond with reported half-life for every item in the list.
Don't forget the unit after the number, please.

Problem: Consider the compound shown here: `[2H]C([2H])([2H])C([2H])([2H])N1CCC(n2cc(-c3cnc(N)c(O[C@H](C)c4c(Cl)ccc(F)c4Cl)c3)cn2)CC1` What is its recorded half-life?
Solution: 3.04 h

Problem: Consider the compound shown here: `CCN1CCC(n2cc(-c3cnc(N)c(O[C@H](C)c4c(Cl)ccc(F)c4Cl)c3)cn2)CC1` What is its recorded half-life?
Solution: 2.89 h
